biological target: Adrenergic receptor alpha-1 (Rattus norvegicus) (UniProt P15823+P23944+P43140); assay: Agonist potency towards alpha-1 adrenergic receptor in the rat isolated electrically stimulated vas deferens with reference to phenylephrine (postjunctional); format: functional, tissue-based
Please go through the items and note down their Potency.
Just the number.

// Potency lookup, molecule = COC1(C2=NCCN2)COc2ccccc2O1 (centres undefined) , result: 0

// Potency lookup, molecule = c1ccc2c(c1)OCC(CN1CCCCC1)O2 (centres undefined) , result: 0

// Potency lookup, molecule = Clc1ccc(OCC2=NCCN2)cc1Cl , result: 0.16

// Potency lookup, molecule = c1ccc2c(c1)OCC(C1=NCCN1)O2 (centres undefined) , result: 0

All figures here come from ChEMBL document CHEMBL1123457.
